- ASSAY TARGET: LXRβ (Homo sapiens, UniProt P55055)
- Sequence (P55055 222-460 limits assumed): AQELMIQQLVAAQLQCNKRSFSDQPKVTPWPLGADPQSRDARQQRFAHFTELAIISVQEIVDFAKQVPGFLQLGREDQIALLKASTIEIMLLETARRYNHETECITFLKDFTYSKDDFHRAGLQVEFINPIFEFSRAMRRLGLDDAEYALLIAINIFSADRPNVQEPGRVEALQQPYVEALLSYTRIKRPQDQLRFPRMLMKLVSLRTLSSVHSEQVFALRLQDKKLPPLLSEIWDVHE
- MEASUREMENT DESCRIPTION: LXR antagonistic activity, GAL-hLXR luciferase transfection assay in CV-1 cells
- EXPERIMENTAL SETUP: antagonism, together with agonist TO901317 (2.5 μM), 24 hours
pIC50: −log10 of the molar value.

| SMILES ENTRY | pIC50 |
| --- | --- |
| CC(C)=CCC/C(C)=C/[C@H]1CC(C)=C[C@@]2(C=C(CO)[C@@H]3CC(=O)C(C)=C[C@@H]3O2)O1 | 7.69 |
